Molecular target: ZFP SBS#319 (synthetic, UniProt P08047)
Sequence (P08047 other isoform, or with tags, fused parts or gaps): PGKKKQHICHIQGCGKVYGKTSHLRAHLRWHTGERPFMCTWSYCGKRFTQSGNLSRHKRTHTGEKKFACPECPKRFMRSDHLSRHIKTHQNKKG
Experiment: EMSA
Conditions: tags: MBP fusion
METRIC NAME: Kd (nM)
Give the number; nM is assumed, so skip it.

QUERY: Need Kd, item GGGGAAGGG (dsDNA) DNA 1: GGGGAAGGG DNA 2: CCCTTCCCC
RESULT: 125
